- TEST_SYSTEM: T1, Recombinant His-tagged human CD36.ECD protein (Sino Biological) (human, UniProt P16671 30-439)
- T1 construct: Bought protein; also called hCD36.ECD; hCD36; not shown: His tag
- T1 sequence (P16671 30-439 limits assumed): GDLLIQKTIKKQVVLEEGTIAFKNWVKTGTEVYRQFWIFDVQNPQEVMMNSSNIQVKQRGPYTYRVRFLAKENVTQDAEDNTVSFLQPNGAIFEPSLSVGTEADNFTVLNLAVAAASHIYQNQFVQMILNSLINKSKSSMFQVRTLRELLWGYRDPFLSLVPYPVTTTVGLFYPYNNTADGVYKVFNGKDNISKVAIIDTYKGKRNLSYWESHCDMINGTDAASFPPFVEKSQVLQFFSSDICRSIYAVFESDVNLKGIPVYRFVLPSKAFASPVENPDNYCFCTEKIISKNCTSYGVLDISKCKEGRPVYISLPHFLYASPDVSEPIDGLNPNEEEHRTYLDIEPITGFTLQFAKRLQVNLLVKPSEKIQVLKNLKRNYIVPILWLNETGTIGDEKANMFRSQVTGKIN
- ASSAY_PROTOCOL: ELISA, coated human CD36.ECD (FIG. 2B)
pEC50: −log10 of the molar value.
Recorded measurements of pEC50, one per entry
MEASUREMENT_KIND: pEC50

[
  {
    "BINDER": "117_30D (antibody, V domains shown, full-length IgG, human kappa) VH: EVQLVESGGGLVQPGGSLRLSCAASGFTIDSFGIHWVRQAPGKGLEWVAWIAPYGGYTYYADSVKGRFTISADTSKNTAYLQMNSLRAEDTAVYYCARSFFGYFDYWGQGTLVTVSS VL: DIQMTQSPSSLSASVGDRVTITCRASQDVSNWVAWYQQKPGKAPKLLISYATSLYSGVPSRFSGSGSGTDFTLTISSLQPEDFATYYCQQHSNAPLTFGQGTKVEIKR",
    "REPORTED_VALUE": 9.85
  },
  {
    "BINDER": "117_28D (antibody, V domains shown, full-length IgG, human kappa) VH: EVQLVESGGGLVQPGGSLRLSCAASGFDISSFGIHWVRQAPGKGLEWVAWIAPYGGYTYYADSVKGRFTISADTSKNTAYLQMNSLRAEDTAVYYCARSFFGYFDYWGQGTLVTVSS VL: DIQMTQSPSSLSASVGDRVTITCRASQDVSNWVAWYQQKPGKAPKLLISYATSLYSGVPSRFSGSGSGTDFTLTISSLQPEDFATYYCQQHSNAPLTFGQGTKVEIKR",
    "REPORTED_VALUE": 10.13
  },
  {
    "BINDER": "117_31A (antibody, V domains shown, full-length IgG, human kappa) VH: EVQLVESGGGLVQPGGSLRLSCAASGFTISAFGIHWVRQAPGKGLEWVAWIAPYGGYTYYADSVKGRFTISADTSKNTAYLQMNSLRAEDTAVYYCARSFFGYFDYWGQGTLVTVSS VL: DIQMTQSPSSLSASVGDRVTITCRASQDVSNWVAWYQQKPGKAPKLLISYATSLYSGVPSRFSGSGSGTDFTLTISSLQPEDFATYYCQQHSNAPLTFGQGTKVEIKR",
    "REPORTED_VALUE": 10.00
  }
]

Ref: patent US20250206837A1
